Assay: Pharmacokinetics in rats after single intravenous injection
Type: in vivo, Sprague–Dawley rats
Conditions: Sprague-Dawley, rat, plasma, iv, 5 mg/kg, T 1/2β, rats, 5 mg/kg DNR iv
Measured Attribute: half-life (h)
Provide the reading as a plain figure in h.

For COc1cccc2c1C(=O)c1c(O)c3c(c(O)c1C2=O)C[C@@](O)(C(C)=O)C[C@@H]3O[C@H]1C[C@H](N)[C@H](O)[C@H](C)O1 [Free DNR, daunorubicin] , write its half-life.
25.4

----------
Assay: Pharmacokinetics in mice after single intravenous injection
Format: in vivo, BALB/c mice
Settings: BALB/c, mouse, plasma, iv, 10 mg/kg
Measured Attribute: Vd (L/kg)
Provide the reading as a plain figure in L/kg.

For COc1cccc2c1C(=O)c1c(O)c3c(c(O)c1C2=O)C[C@@](O)(C(C)=O)C[C@@H]3O[C@H]1C[C@H](N)[C@H](O)[C@H](C)O1 [Free DNR, daunorubicin] , write its Vd.
0.205

----------
Experiment: Pharmacokinetics in mice after single intravenous injection
Assay type: in vivo, BALB/c mice
Conditions: BALB/c, mouse, plasma, iv, 10 mg/kg
Measured Attribute: concentration at 24 h (ng/mL)
Provide the reading as a plain figure in ng/mL.

For COc1cccc2c1C(=O)c1c(O)c3c(c(O)c1C2=O)C[C@@](O)(C(C)=O)C[C@@H]3O[C@H]1C[C@H](N)[C@H](O)[C@H](C)O1 [Free DNR, daunorubicin] , write its concentration at 24 h.
13600

----------
Test: Pharmacokinetics in mice after single intravenous injection
Format: in vivo, BALB/c mice
Details: BALB/c, mouse, plasma, iv, 10 mg/kg
Measured Attribute: MRT (h)
Provide the reading as a plain figure in h.

For COc1cccc2c1C(=O)c1c(O)c3c(c(O)c1C2=O)C[C@@](O)(C(C)=O)C[C@@H]3O[C@H]1C[C@H](N)[C@H](O)[C@H](C)O1 [Free DNR, daunorubicin] , write its MRT.
16.7

----------
Test: Pharmacokinetics in mice after single intravenous injection
Type: in vivo, BALB/c mice
Settings: BALB/c, mouse, plasma, iv, 10 mg/kg, T 1/2β, mice, 10 mg/kg DNR iv
Measured Attribute: half-life (h)
Provide the reading as a plain figure in h.

For COc1cccc2c1C(=O)c1c(O)c3c(c(O)c1C2=O)C[C@@](O)(C(C)=O)C[C@@H]3O[C@H]1C[C@H](N)[C@H](O)[C@H](C)O1 [Free DNR, daunorubicin] , write its half-life.
11.9

----------
Test: Pharmacokinetics in rats after single intravenous injection
Assay type: in vivo, Sprague–Dawley rats
Details: Sprague-Dawley, rat, plasma, iv, 5 mg/kg
Measured Attribute: Vd

For COc1cccc2c1C(=O)c1c(O)c3c(c(O)c1C2=O)C[C@@](O)(C(C)=O)C[C@@H]3O[C@H]1C[C@H](N)[C@H](O)[C@H](C)O1 [Free DNR, daunorubicin] , write its Vd.
50.8 L/kg

----------
Test: Pharmacokinetics in rats after single intravenous injection
Format: in vivo, Sprague–Dawley rats
Conditions: Sprague-Dawley, rat, plasma, iv, 5 mg/kg
Measured Attribute: MRT

For COc1cccc2c1C(=O)c1c(O)c3c(c(O)c1C2=O)C[C@@](O)(C(C)=O)C[C@@H]3O[C@H]1C[C@H](N)[C@H](O)[C@H](C)O1 [Free DNR, daunorubicin] , write its MRT.
36.2 h

----------
Test: Pharmacokinetics in rats after single intravenous injection
Assay type: in vivo, Sprague–Dawley rats
Details: Sprague-Dawley, rat, plasma, iv, 5 mg/kg
Measured Attribute: AUC(0-t) (ng·h/mL)
Provide the reading as a plain figure in ng·h/mL.

For COc1cccc2c1C(=O)c1c(O)c3c(c(O)c1C2=O)C[C@@](O)(C(C)=O)C[C@@H]3O[C@H]1C[C@H](N)[C@H](O)[C@H](C)O1 [Free DNR, daunorubicin] , write its AUC(0-t).
3600

----------
Experiment: Pharmacokinetics in rats after single intravenous injection
Type: in vivo, Sprague–Dawley rats
Conditions: Sprague-Dawley, rat, plasma, iv, 5 mg/kg
Measured Attribute: Cmax (ng/mL)
Provide the reading as a plain figure in ng/mL.

For COc1cccc2c1C(=O)c1c(O)c3c(c(O)c1C2=O)C[C@@](O)(C(C)=O)C[C@@H]3O[C@H]1C[C@H](N)[C@H](O)[C@H](C)O1 [Free DNR, daunorubicin] , write its Cmax.
1910

----------
Test: Pharmacokinetics in rats after single intravenous injection
Type: in vivo, Sprague–Dawley rats
Conditions: Sprague-Dawley, rat, plasma, iv, 5 mg/kg
Measured Attribute: clearance (mL/min/kg)
Provide the reading as a plain figure in mL/min/kg.

For COc1cccc2c1C(=O)c1c(O)c3c(c(O)c1C2=O)C[C@@](O)(C(C)=O)C[C@@H]3O[C@H]1C[C@H](N)[C@H](O)[C@H](C)O1 [Free DNR, daunorubicin] , write its clearance.
23.7

----------
Assay: Pharmacokinetics in mice after single intravenous injection
Format: in vivo, BALB/c mice
Settings: BALB/c, mouse, plasma, iv, 10 mg/kg
Measured Attribute: AUC(0-t) (µg·h/mL)
Provide the reading as a plain figure in µg·h/mL.

For COc1cccc2c1C(=O)c1c(O)c3c(c(O)c1C2=O)C[C@@](O)(C(C)=O)C[C@@H]3O[C@H]1C[C@H](N)[C@H](O)[C@H](C)O1 [Free DNR, daunorubicin] , write its AUC(0-t).
836

----------
Test: Pharmacokinetics in mice after single intravenous injection
Type: in vivo, BALB/c mice
Conditions: BALB/c, mouse, plasma, iv, 10 mg/kg
Measured Attribute: Cmax (µg/mL)
Provide the reading as a plain figure in µg/mL.

For COc1cccc2c1C(=O)c1c(O)c3c(c(O)c1C2=O)C[C@@](O)(C(C)=O)C[C@@H]3O[C@H]1C[C@H](N)[C@H](O)[C@H](C)O1 [Free DNR, daunorubicin] , write its Cmax.
961

----------
Experiment: Pharmacokinetics in mice after single intravenous injection
Type: in vivo, BALB/c mice
Conditions: BALB/c, mouse, plasma, iv, 10 mg/kg
Measured Attribute: clearance (mL/min/kg)
Provide the reading as a plain figure in mL/min/kg.

For COc1cccc2c1C(=O)c1c(O)c3c(c(O)c1C2=O)C[C@@](O)(C(C)=O)C[C@@H]3O[C@H]1C[C@H](N)[C@H](O)[C@H](C)O1 [Free DNR, daunorubicin] , write its clearance.
0.2
